Provenance of the data: the RNAGym collection of RNA variant scans (doi:10.1093/nar/gkz1192)

B1: CPEB3 Ribozyme (parent)
chain: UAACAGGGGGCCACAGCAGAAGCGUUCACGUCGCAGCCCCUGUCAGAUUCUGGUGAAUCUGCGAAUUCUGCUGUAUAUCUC

- Variants of: B1
- ASSAY REMARKS: self-cleavage, relative activity (ratio to wild type); higher = more cleavage; in vitro, sequencing
Use 0.2 as the dividing line for self-cleavage, with the line itself on the 1 side and lower values as 0.

Worked set:
Has U41A A57C a recorded self-cleavage greater than or equal to 0.2?
1

Is self-cleavage at least 0.2? Consider G10A U43G
0

State whether the measured self-cleavage reaches 0.2, counting equality as reaching it, for G19U C44A
1

Can C39U A56G be said to have self-cleavage at or above 0.2?
1

Is self-cleavage for G7C U43A at or above 0.2?
1

New cases:
Has A3C A65G a recorded self-cleavage greater than or equal to 0.2?
1

Hi, just wondering whether A20C C37U shows self-cleavage of 0.2 or higher.
0

Does the variant U51C U69A have recorded self-cleavage that is 0.2 or more?
1
